Origin of the recorded values: patent US11149021B2

tested on: M-07e human cytomegalic leukemia cells; experiment: CSF-1R-related cell proliferation experiment, KIT (Cell Titer Glo); format: cell-based; conditions: 72 h, read-out: Cytological experiment KIT IC50 (nM)
measured metric: IC50

Sample records with IC50:
In [3]: df
Out[3]:
                                   compound                             target_desc      result
0  Cc1nc(NC(=O)N2CCOC(C)(C)C2=O)ccc1Oc1ccnc(-c2cnn(C)c2)c1  M-07e human cytomegalic leukemia cells   > 2000 nM
1  Cc1nc(NC(=O)N2CCC(C)(O)C2=O)ccc1Oc1ccnc(-c2cnn(C)c2)c1 (stereo not shown)  M-07e human cytomegalic leukemia cells  > 18000 nM
2  [2H]C([2H])([2H])n1cc(-c2cc(Oc3ccc(NC(=O)N4CCC(C)(C)C4=O)nc3C)ccn2)cn1  M-07e human cytomegalic leukemia cells   > 1120 nM

Look up IC50 for this compound: Cc1nc(NC(=O)N2CCC(C)(C)C2=O)ccc1Oc1ccnc(-c2cnn(C3CC3)c2)c1 > 1120 nM

---

Quick note: these are IC50 numbers for system: CSF-1R (Homo sapiens)
Sequence (P07333 20-972): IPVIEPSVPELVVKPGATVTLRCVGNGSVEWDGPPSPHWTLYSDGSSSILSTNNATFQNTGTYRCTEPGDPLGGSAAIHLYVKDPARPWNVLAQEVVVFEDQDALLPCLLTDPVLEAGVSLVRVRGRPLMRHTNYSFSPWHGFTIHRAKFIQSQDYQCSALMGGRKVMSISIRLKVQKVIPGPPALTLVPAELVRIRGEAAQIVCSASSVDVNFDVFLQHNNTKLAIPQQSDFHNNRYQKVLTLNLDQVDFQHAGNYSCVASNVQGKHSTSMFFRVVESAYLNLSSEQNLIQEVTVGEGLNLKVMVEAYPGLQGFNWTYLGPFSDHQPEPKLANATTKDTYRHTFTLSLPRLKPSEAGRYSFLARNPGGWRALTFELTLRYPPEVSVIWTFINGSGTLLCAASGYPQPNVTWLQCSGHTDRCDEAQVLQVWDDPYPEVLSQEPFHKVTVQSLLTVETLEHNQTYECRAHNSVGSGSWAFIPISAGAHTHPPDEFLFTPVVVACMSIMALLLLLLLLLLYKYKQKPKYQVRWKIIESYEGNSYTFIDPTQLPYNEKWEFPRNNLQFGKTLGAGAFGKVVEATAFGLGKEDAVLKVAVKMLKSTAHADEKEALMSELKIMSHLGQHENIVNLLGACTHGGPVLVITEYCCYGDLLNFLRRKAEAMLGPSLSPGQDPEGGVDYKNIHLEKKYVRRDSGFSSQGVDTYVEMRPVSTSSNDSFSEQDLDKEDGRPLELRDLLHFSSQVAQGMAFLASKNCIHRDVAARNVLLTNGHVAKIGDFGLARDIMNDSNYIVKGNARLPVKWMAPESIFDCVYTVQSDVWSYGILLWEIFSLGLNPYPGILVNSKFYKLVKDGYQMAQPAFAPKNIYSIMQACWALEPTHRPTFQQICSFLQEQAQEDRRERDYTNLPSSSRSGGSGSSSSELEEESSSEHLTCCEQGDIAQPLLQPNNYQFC
measured metric: IC50 (µM)

In [3]: df
Out[3]:
                                     smiles  result_number
0  Cc1nc(NC(=O)N2CCC(C)(C)C2=O)ccc1Oc1ccnc(NC(=O)C2CC2)c1         0.0752
1  Cc1nc(NC(=O)N2CCC(C)(C)C2=O)ccc1Oc1ccnc(-c2cnn([C@H]3CCOC3)c2)c1         0.0717
2  COCCn1cc(-c2cc(Oc3ccc(NC(=O)N4CCC(C)(C)C4=O)nc3C)ccn2)cn1         0.0725
